Each recorded value in this set is attributed to patent US20190201491A1.

biological target: beta Klotho and FGFR1c (Fibroblast Growth Factor Receptor isoform 1c) expressed on the cell surface of a proprietary stable cell line (HEK293); test: cell-based or functional assay
[ ]: non-standard residue; d: D form. Phe(4-Ac) = CC(=O)c1ccc(C[C@H](N)C(=O)O)cc1
This listing pairs binders with measured Average Fold Loss Potency Relative to bFGF-21-Q108-30KPEG, Elk1 luciferase reporter assay.
Write your answer as a measured quantity: the number, then the unit.

• bFGF-21-Q108-30KPEG G170D (ligand) HPIPDSSPLLQFGGQVRQRYLYTDDAQETEAHLEIRADGTVVGAARQSPESLLELKALKPGVIQILGVKTSRFLCQGPDGKLYGSLHFDPKACSFRELLLEDGYNVY[Phe(4-Ac)](PEG 30 kDa)SETLGLPLRLPPQRSSNRDPAPRGPARFLPLPGLPAAPPDPPGILAPEPPDVGSSDPLSMVDPSYGRSPSYTS = 8.7 fold
• bFGF-21-Q108-30KPEG G170A (ligand) HPIPDSSPLLQFGGQVRQRYLYTDDAQETEAHLEIRADGTVVGAARQSPESLLELKALKPGVIQILGVKTSRFLCQGPDGKLYGSLHFDPKACSFRELLLEDGYNVY[Phe(4-Ac)](PEG 30 kDa)SETLGLPLRLPPQRSSNRDPAPRGPARFLPLPGLPAAPPDPPGILAPEPPDVGSSDPLSMVAPSYGRSPSYTS = 1.7 fold
• bFGF-21-Q108pAF-30KPEG-G170E (ligand) HPIPDSSPLLQFGGQVRQRYLYTDDAQETEAHLEIRADGTVVGAARQSPESLLELKALKPGVIQILGVKTSRFLCQGPDGKLYGSLHFDPKACSFRELLLEDGYNVY[Phe(4-Ac)](PEG 30 kDa)SETLGLPLRLPPQRSSNRDPAPRGPARFLPLPGLPAAPPDPPGILAPEPPDVGSSDPLSMVEPSYGRSPSYTS = 3.7 fold

Now turn to the next binder.
Query block: # input binder: bFGF-21-Q108-30KPEG (ligand) HPIPDSSPLLQFGGQVRQRYLYTDDAQETEAHLEIRADGTVVGAARQSPESLLELKALKPGVIQILGVKTSRFLCQGPDGKLYGSLHFDPKACSFRELLLEDGYNVY[Phe(4-Ac)](PEG 30 kDa)SETLGLPLRLPPQRSSNRDPAPRGPARFLPLPGLPAAPPDPPGILAPEPPDVGSSDPLSMVGPSYGRSPSYTS ; wanted: its Average Fold Loss Potency Relative to bFGF-21-Q108-30KPEG, Elk1 luciferase reporter assay
Result block: 1 fold
